SYSTEM: μ-receptor (Rattus norvegicus, UniProt P33535)
Construct: assessed for analgesic activity by rat paw-hot plate assay; from tissue; host or cells: whole living rat (in vivo)
Sequence (P33535 whole entry, looked up): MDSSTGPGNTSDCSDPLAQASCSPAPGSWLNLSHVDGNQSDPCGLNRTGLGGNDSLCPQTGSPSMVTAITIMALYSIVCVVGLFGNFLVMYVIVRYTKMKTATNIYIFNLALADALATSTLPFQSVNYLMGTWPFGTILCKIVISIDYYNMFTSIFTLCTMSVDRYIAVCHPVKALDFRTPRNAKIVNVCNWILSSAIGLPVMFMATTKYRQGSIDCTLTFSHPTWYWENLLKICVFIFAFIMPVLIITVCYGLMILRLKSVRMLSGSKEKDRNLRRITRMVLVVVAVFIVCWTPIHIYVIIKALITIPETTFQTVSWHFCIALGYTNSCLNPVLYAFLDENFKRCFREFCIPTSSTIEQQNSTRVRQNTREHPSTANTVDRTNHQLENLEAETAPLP
PROTOCOL: % SPECIFIC BINDING
RUN CONDITIONS: 0.1 µM
Text: Table printed on a drawing sheet, FIG.8 Head of the field: % […] BINDING First copying reader's note: The title is printed as the top row inside the table frame and is given as the title, not as a grid row.
Where no end group is shown, it is not given here.
QUANTITY KIND: % SPECIFIC BINDING (%)
Return type: number; implicit unit %.

**Query** Item PALMITATE-PEG3-ENK (SEQ ID NO: 1) [PALM-ENK] with μ-receptor (Rattus norvegicus, UniProt P33535) - % SPECIFIC BINDING?
**Result** 76

**Query** What reported % SPECIFIC BINDING corresponds to CETYL-PEG3-ENK (SEQ ID NO: 1) (YGGFMK; also: cetyl-PEG3 conjugate, site not given here) [CETYL-TEG-ENK] on μ-receptor (Rattus norvegicus, UniProt P33535)?
**Result** 100

**Query** What % SPECIFIC BINDING appears in the records for this substance with μ-receptor (Rattus norvegicus, UniProt P33535)? CHOLESTEROL-PEG3-ENK (SEQ ID NO: 1) (YGGFMK; also: cholesterol-PEG3 conjugate, site not given here) [CHOL-ENK]
**Result** 95

**Query** // fetch μ-receptor (Rattus norvegicus, UniProt P33535) % SPECIFIC BINDING for CETYL-PEG2-ENK (SEQ ID NO: 1) (YGGFMK; also: cetyl-PEG2 conjugate, site not given here) [CETYL-ENK]
**Result** 100

Attention now shifts to the item below.
**Query** Hello, I am looking for reported % SPECIFIC BINDING with μ-receptor (Rattus norvegicus, UniProt P33535) for DHA-PEG2-ENK (SEQ ID NO: 1) (YGGFMK; also: DHA-PEG2 conjugate, site not given here) [DHA-ENK] . Could you help?
**Result** 63

Entry source: patent US6943148B1
